Reference source: ChEMBL document CHEMBL1141882

target: Protein kinase C alpha type (Homo sapiens) (UniProt P17252)
method: Inhibition of human Protein kinase C alpha
Parameters: concentration or dose not given beside the values
details: concentration not given here
# inhibition per entry
measuredQuantity: inhibition (%)

INSERT INTO results (smilesrecord, measurementunit, observedvalue) VALUES
  ('Cn1cnc2c(Nc3ccc(F)cc3)ncnc21', '%', 11),
  ('Fc1ccc(Cn2cnc3c(Cl)ncnc32)cc1', '%', 14),
  ('CSc1ccc(-c2nc3c(Sc4ccc(F)cc4)ncnc3n2C)cc1', '%', 0),
  ('c1ccc(Sc2[nH]cnc3nccc2-3)cc1', '%', 23),
  ('c1ccc(Cn2cnc3c(Sc4ccccc4)ncnc32)cc1', '%', 0),
  ('Cn1c(Br)nc2c(Sc3ccccc3)ncnc21', '%', 5),
  ('Clc1ncnc2c1ncn2Cc1ccccc1', '%', 17),
  ('CSc1ccc(-c2nc3c(Sc4ccccc4)ncnc3n2C)cc1', '%', 0);
